FYI, the data here is from the kinase profiling compilation of Christmann-Franck et al. (2016).

- ASSAY_SYSTEM: MKNK2 (human)
- PROCEDURE_TEXT: radiometric filter-binding kinase assay
- CONDITIONS: compound 0.1 µM
MEASURED_QUANTITY: residual activity
Answer by giving the amount and then stating its unit.

{"COMPOUND": "C=CC(=O)N1CCC[C@@H](n2nc(-c3ccc(Oc4ccccc4)cc3)c3c(N)ncnc32)C1", "residual activity": "106%"}
{"COMPOUND": "CCn1c(-c2nonc2N)nc2cncc(CNC3CCNCC3)c21", "residual activity": "110%"}

Q: Suppose we examine the compound O=C(O)c1ccc(-c2c[nH]c3ncc(-c4ccccc4)cc23)cc1C1CCCC1 ; what residual activity value has been reported?
Ans: 68%

Q: Suppose we examine the compound CN1CCN(CCOc2cc(OC3CCOCC3)c3c(Nc4c(Cl)ccc5c4OCO5)ncnc3c2)CC1 ; what residual activity value has been reported?
Ans: 110%

Q: Suppose we examine the compound COc1ccc2c(c1)c1c3c(c4c5ccccc5n(C)c4c1n2CC(O)CN(C)C)C(=O)NC3=O (centres undefined) ; what residual activity value has been reported?
Ans: 90%

Q: Suppose we examine the compound COc1ccc(-n2ncc3cnc(Nc4cc(OC)c(OC)c(OCCCN5CCN(C)CC5)c4)nc32)cc1 ; what residual activity value has been reported?
Ans: 67%

Q: Suppose we examine the compound O=C(NCCCNc1nc(Nc2cccc(CN3CCOCC3)c2)ncc1C1CC1)C1CCC1 ; what residual activity value has been reported?
Ans: 80%

Q: Suppose we examine the compound CCc1cncnc1N1CCN(Cc2nc3cc(C(F)(F)F)ccc3[nH]2)CC1 ; what residual activity value has been reported?
Ans: 92%

Q: Suppose we examine the compound O=C(Nc1ccccc1-c1cn2c(CN3CCNCC3)csc2n1)c1cnc2ccccc2n1 ; what residual activity value has been reported?
Ans: 90%

Q: Suppose we examine the compound COc1cc(O)c2c(c1)[C@H]1OC1C[C@H](O)[C@H](O)C(=O)/C=C\C[C@H](C)OC2=O (some centres undefined) ; what residual activity value has been reported?
Ans: 62%

Q: Suppose we examine the compound c1ccc2c(-c3cnn4cc(-c5ccc(N6CCNCC6)cc5)cnc34)ccnc2c1 ; what residual activity value has been reported?
Ans: 90%

Q: Suppose we examine the compound O=C(N[C@@H](COc1ccc2[nH]c(=O)[nH]c2c1)c1ccccc1)c1cccn(Cc2ccc(F)c(F)c2)c1=O ; what residual activity value has been reported?
Ans: 117%

Q: Suppose we examine the compound Cc1ccc(Sc2cnc(Nc3cccc(Br)n3)s2)cc1C(=O)N1CCN(C(=O)CN)CC1 ; what residual activity value has been reported?
Ans: 120%

Q: Suppose we examine the compound COc1ccc(N(C(=O)Nc2c(C)cccc2C)c2cc(Nc3ccc(N4CCN(C)CC4)cc3)ncn2)c(OC)c1 ; what residual activity value has been reported?
Ans: 107%

Q: Suppose we examine the compound COc1cc(O)c2c(c1)/C=C/C[C@H](O)[C@H](O)C(=O)/C=C\C[C@H](C)OC2=O ; what residual activity value has been reported?
Ans: 41%

Q: Suppose we examine the compound NC(=O)Nc1ccc2c(c1)/C(=C/c1cc(-c3cccnc3)c[nH]1)C(=O)N2 ; what residual activity value has been reported?
Ans: 75%

Q: Suppose we examine the compound CN(C)C/C=C/C(=O)Nc1cccc(C(=O)Nc2ccc(Nc3nccc(-c4cccnc4)n3)cc2)c1 ; what residual activity value has been reported?
Ans: 92%

Q: Suppose we examine the compound C/C(=C1/C(=O)Nc2ccc(NC(N)=O)cc21)c1ccc[nH]1 ; what residual activity value has been reported?
Ans: 78%

Q: Suppose we examine the compound CCCCCc1ccc(/C=C/[C@H](O)[C@@H](CO)NC)cc1 ; what residual activity value has been reported?
Ans: 111%
